Biological target: UniProt Q96LA8
pIC50: −log10 of the molar value. Counter-ions that a name gives are not always drawn.
recorded_metric: pIC50

What pIC50 value was documented for this molecule, Cc1ccc(-c2n[nH]cc2CN(C)CCN)cc1 [Compound 162] ?
> 7.00

What pIC50 value was documented for this molecule, CNCCN(C)Cc1cn(C2CCC2)nc1-c1ccc(OC(C)C)cc1 [Compound 254, hydrochloride] ?
6.00 to 7.00

What pIC50 value was documented for this molecule, CNCCN(C)Cc1cn(C2CCOC2)nc1-c1ccc(OC(C)C)cc1 (stereo not drawn) [Compound 215] ?
6.00 to 7.00

What pIC50 value was documented for this molecule, CNCCN(C)Cc1cn(C2CCCC2)nc1-c1ccc(OC(C)C)cc1 [Compound 214] ?
6.00 to 7.00

What pIC50 value was documented for this molecule, CC(C)Oc1ccc(-c2c[nH]nc2CN(C)CCN)cc1Cl [Compound 211] ?
> 7.00

---

Measurement record for Full-length human PRMT3 (Homo sapiens, UniProt O60678); quantity recorded: IC50.

Check out these entries, answers already filled in.
INSERT INTO measurements (entry_smiles, assay_system, measured) VALUES
  ('Cc1cccc(-c2n[nH]cc2CN(C)CCN)c1', 'Full-length human PRMT3 (Homo sapiens, UniProt O60678)', '3.01 to 10 µM'),
  ('Cc1ccc(C#N)cc1-c1n[nH]cc1CN(C)CCN', 'Full-length human PRMT3 (Homo sapiens, UniProt O60678)', '> 10 µM'),
  ('COc1ccc(-c2n[nH]cc2CN(C)CCN)cc1F', 'Full-length human PRMT3 (Homo sapiens, UniProt O60678)', '3.01 to 10 µM');

Enter reported IC50 observed with Full-length human PRMT3 (Homo sapiens, UniProt O60678) for CNCCN(C)Cc1c[nH]nc1-c1cccc(C(C)=O)c1
Sequence (O60678 with tags, fused parts or gaps): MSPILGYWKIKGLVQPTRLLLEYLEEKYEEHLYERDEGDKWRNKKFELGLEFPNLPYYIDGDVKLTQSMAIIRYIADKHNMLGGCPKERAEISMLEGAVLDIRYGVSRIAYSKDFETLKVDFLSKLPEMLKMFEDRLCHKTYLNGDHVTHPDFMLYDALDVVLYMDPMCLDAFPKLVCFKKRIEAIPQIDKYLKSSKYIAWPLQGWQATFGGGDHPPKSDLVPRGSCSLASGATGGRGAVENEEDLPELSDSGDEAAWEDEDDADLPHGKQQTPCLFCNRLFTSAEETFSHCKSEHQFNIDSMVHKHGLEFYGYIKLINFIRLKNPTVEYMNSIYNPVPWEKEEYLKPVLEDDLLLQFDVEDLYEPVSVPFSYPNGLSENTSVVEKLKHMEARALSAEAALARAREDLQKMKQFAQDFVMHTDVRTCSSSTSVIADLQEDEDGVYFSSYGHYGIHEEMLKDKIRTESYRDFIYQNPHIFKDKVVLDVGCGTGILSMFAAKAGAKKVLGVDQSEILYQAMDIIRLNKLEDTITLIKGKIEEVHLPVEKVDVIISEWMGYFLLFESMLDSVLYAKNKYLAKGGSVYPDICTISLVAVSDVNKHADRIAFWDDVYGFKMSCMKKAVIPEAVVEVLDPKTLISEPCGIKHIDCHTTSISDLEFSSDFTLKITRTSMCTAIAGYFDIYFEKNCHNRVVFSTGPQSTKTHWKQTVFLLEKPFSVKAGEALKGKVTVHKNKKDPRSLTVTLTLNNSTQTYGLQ
3.01 to 10 µM

Enter reported IC50 observed with Full-length human PRMT3 (Homo sapiens, UniProt O60678) for CN(CCN)Cc1c(-c2ccc(C#N)cc2)cnn1C
> 10 µM

Enter reported IC50 observed with Full-length human PRMT3 (Homo sapiens, UniProt O60678) for CN(CCN)Cc1cn(CCO)nc1-c1ccc(F)cc1
> 10 µM

Enter reported IC50 observed with Full-length human PRMT3 (Homo sapiens, UniProt O60678) for CN(CCN)Cc1c[nH]nc1-c1cc(Cl)ccc1F
> 10 µM

Enter reported IC50 observed with Full-length human PRMT3 (Homo sapiens, UniProt O60678) for CN(CCN)Cc1n[nH]cc1-c1ccc(C(F)(F)F)cc1
> 10 µM

Enter reported IC50 observed with Full-length human PRMT3 (Homo sapiens, UniProt O60678) for CNCCN(C)Cc1cnn(CC2CCOCC2)c1-c1ccc(F)cc1
> 10 µM

Enter reported IC50 observed with Full-length human PRMT3 (Homo sapiens, UniProt O60678) for Cc1c(F)cccc1-c1n[nH]cc1CN(C)CCN
3.01 to 10 µM

---

Below: a set of entries, each annotated with reported IC50.
Target: Full-length human PRMT8 (Homo sapiens, UniProt Q9NR22)
Construct: Full-length human PRMT8 (NM_019854.4) isoform 1 transcript clone
Sequence (Q9NR22 whole entry, canonical isoform): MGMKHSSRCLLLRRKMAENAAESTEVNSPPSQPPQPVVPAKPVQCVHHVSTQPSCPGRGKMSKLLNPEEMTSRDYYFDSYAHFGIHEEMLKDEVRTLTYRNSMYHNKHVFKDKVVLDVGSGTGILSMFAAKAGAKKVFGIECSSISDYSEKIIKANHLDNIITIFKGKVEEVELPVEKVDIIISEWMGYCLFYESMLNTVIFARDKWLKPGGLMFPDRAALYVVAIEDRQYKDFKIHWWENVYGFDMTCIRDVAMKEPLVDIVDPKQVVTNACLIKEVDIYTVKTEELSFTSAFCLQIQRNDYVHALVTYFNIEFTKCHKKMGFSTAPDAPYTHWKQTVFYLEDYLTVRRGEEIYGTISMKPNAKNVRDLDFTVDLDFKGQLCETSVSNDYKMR
Assay: PRMT8 biochemical assay (3H-SAM Flashplate, peptide substrate)

Check out these entries, answers already filled in.
INSERT INTO results (compound, measured) VALUES
  ('CNCCN(C)Cc1c[nH]nc1-c1ccc(Cl)c(F)c1', '101 to 1000 nM'),
  ('COc1ccc(-c2n[nH]cc2CN(C)CCN)c(OC)c1', '3010 to 10000 nM'),
  ('CN(CCN)Cc1cn(CCO)nc1-c1ccc(F)cc1', '3010 to 10000 nM');

What IC50 value was documented for this compound, CNCCN(C)Cc1c[nH]nc1-c1cccc(N)c1 ?
1010 to 3000 nM

What IC50 value was documented for this compound, CNCCN(C)Cc1c[nH]nc1-c1ccccc1OC ?
3010 to 10000 nM

What IC50 value was documented for this compound, CN(CCN)Cc1c[nH]nc1-c1ccc(N2CCNCC2)cc1 ?
1010 to 3000 nM

---

Measurement record for Human CARM1 (PRMT4) (Homo sapiens, UniProt Q86X55); quantity recorded: IC50.

INSERT INTO assay_data (entry_smiles, measured) VALUES
  ('CN(CCN)Cc1c[nH]nc1-c1cc(F)ccc1Cl', '> 10000 nM'),
  ('Cc1ccc(C#N)cc1-c1n[nH]cc1CN(C)CCN', '> 10000 nM'),
  ('CN(CCN)Cc1c[nH]nc1-c1ccc(OC2CC2)cc1', '101 to 1000 nM'),
  ('CN(CCN)Cc1c[nH]nc1-c1ccc(OC(F)(F)F)cc1', '1010 to 3000 nM'),
  ('Cc1ccc(-c2n[nH]cc2CN(C)CCN)c(Cl)c1', '3010 to 10000 nM'),
  ('CNCCN(C)Cc1cn(C2CCCC2)nc1-c1ccc(OC(C)C)cc1', '101 to 1000 nM'),
  ('CN(CCN)Cc1cn(CC2CCOCC2)nc1-c1ccc(F)cc1', '> 10000 nM'),
  ('COc1cc(Cl)cc(-c2n[nH]cc2CN(C)CCN)c1', '1010 to 3000 nM');

Enter reported IC50 observed with Human CARM1 (PRMT4) (Homo sapiens, UniProt Q86X55) for CN(CCN)Cc1c[nH]nc1-c1cccc(F)c1
Sequence (Q86X55 with tags, fused parts or gaps isoform Q86X55-1): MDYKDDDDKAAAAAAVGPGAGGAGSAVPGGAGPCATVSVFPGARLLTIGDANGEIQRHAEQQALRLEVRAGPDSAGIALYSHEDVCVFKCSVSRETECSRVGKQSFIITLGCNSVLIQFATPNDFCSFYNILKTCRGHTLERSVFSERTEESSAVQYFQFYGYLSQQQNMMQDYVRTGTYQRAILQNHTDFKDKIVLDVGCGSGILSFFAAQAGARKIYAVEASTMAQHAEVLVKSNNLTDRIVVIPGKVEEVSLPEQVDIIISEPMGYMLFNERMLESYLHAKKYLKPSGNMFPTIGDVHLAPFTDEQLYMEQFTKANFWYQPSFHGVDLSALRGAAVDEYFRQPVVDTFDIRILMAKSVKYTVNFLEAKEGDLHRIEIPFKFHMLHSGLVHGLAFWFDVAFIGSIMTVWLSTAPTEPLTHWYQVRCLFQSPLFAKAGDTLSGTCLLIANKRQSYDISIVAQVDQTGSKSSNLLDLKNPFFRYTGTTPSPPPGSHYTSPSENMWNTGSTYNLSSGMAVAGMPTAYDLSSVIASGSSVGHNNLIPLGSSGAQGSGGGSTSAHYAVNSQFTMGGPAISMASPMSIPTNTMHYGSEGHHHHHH
101 to 1000 nM

Enter reported IC50 observed with Human CARM1 (PRMT4) (Homo sapiens, UniProt Q86X55) for CNCCN(C)Cc1cn[nH]c1-c1cc(F)cc(F)c1
101 to 1000 nM

---

Target: Full-length human PRMT1 isoform 1 (Homo sapiens)
Construct: GST-tagged PRMT1
Experiment: PRMT1 biochemical assay (3H-SAM Flashplate, peptide substrate)
pIC50: −log10 of the molar value.
Below: a set of entries, each annotated with reported pIC50.

INSERT INTO measurements (compound, measured) VALUES
  ('CNCCN(C)Cc1cn(CCC(O)CO)nc1-c1ccc(F)cc1 (stereo not shown) [Compound 59]', '5.00 to 5.52'),
  ('CN(CCN)Cc1c[nH]nc1-c1cccc(F)c1 [Compound 71]', '> 7.00'),
  ('CCOC(=O)c1cccc(-c2n[nH]cc2CN(C)CCN)c1 [Compound 150]', '> 7.00'),
  ('COCCn1ncc(CN(C)CCN)c1-c1ccc(F)cc1 [Compound 6]', '5.00 to 5.52'),
  ('CN(CCN)Cc1c[nH]nc1-c1ccccc1C#N [Compound 140]', '6.00 to 7.00');

What pIC50 value was documented for this compound, CC(=O)c1cccc(-c2n[nH]cc2CN(C)CCN)c1 [Compound 112] ?
> 7.00

What pIC50 value was documented for this compound, CNCCN(C)Cc1c[nH]nc1-c1ccc(OC2CCOCC2)cc1 [Compound 175] ?
> 7.00

What pIC50 value was documented for this compound, CNCCN(C)Cc1nn(C)cc1-c1ccc(OCCCOC)cc1 [Compound 266] ?
6.00 to 7.00

What pIC50 value was documented for this compound, CN(CCN)Cc1c[nH]nc1-c1ccccc1F [Compound 72] ?
6.00 to 7.00

What pIC50 value was documented for this compound, CNCCN(C)Cc1cn(C)nc1-c1ccc(Oc2ccccc2)cc1 [Compound 207] ?
> 7.00

---

Measurement record for Full-length human PRMT6 (Homo sapiens, UniProt Q96LA8); quantity recorded: IC50.

Check out these entries, answers already filled in.
INSERT INTO assay_data (compound, assay_system, recorded_metric, measured) VALUES
  ('CNCCN(C)Cc1cnn(CCCC(O)CO)c1-c1ccc(F)cc1 (centres unmarked)', 'Full-length human PRMT6 (Homo sapiens, UniProt Q96LA8)', 'IC50', '101 to 1000 nM'),
  ('CN(CCN)Cc1c[nH]nc1-c1ccc2c(c1)N(C)C(=O)CO2', 'Full-length human PRMT6 (Homo sapiens, UniProt Q96LA8)', 'IC50', '< 100 nM'),
  ('CN(CCN)Cc1cn(C2COC2)nc1-c1ccc(F)cc1', 'Full-length human PRMT6 (Homo sapiens, UniProt Q96LA8)', 'IC50', '101 to 1000 nM');

Enter reported IC50 observed with Full-length human PRMT6 (Homo sapiens, UniProt Q96LA8) for CN(CCN)Cc1c[nH]nc1-c1cccc(Cl)c1
Sequence (Q96LA8 with tags, fused parts or gaps): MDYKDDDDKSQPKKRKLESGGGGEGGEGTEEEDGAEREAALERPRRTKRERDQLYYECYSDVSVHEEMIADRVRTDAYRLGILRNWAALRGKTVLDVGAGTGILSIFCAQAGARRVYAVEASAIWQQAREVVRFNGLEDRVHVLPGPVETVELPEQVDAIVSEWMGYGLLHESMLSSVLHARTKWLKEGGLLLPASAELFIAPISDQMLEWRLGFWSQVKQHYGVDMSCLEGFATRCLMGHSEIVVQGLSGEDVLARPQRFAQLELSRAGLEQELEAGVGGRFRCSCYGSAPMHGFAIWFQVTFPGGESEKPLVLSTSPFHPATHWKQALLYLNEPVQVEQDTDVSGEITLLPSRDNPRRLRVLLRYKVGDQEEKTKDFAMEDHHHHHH
< 100 nM

Enter reported IC50 observed with Full-length human PRMT6 (Homo sapiens, UniProt Q96LA8) for CN(CCN)Cc1c[nH]nc1-c1ccc(N2CCNCC2)cc1
101 to 1000 nM

---

Biological target: Full-length human PRMT1 isoform 1 (Homo sapiens, UniProt Q99873)
Construct: GST-tagged PRMT1
Sequence (Q99873 with tags, fused parts or gaps): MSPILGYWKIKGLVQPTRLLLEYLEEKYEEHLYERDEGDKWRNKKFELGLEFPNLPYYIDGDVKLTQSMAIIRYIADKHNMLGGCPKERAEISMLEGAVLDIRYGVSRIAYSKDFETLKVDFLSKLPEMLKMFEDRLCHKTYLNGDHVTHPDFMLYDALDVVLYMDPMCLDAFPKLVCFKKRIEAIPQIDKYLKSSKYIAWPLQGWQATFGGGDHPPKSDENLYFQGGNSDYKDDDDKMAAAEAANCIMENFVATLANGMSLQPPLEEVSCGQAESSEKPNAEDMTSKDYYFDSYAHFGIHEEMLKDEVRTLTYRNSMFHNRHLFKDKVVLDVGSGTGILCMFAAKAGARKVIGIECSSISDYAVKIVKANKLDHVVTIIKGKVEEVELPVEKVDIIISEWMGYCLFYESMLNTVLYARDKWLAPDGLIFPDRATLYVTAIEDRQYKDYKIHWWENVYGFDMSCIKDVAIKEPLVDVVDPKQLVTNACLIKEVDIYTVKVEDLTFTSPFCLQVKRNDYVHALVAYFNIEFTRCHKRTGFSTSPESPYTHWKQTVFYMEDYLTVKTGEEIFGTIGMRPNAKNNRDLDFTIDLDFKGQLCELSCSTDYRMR
Assay: PRMT1 biochemical assay (3H-SAM Flashplate, peptide substrate)
pIC50: −log10 of the molar value.
Below: a set of entries, each annotated with reported pIC50.

INSERT INTO measurements (entry_smiles, measured) VALUES
  ('CN(CCN)Cc1c[nH]nc1-c1ccc(C#N)cc1', '> 7.00');

# ---- query molecule ----
Enter reported pIC50 observed with Full-length human PRMT1 isoform 1 (Homo sapiens, UniProt Q99873) for CN(CCN)Cc1c[nH]nc1-c1ccc(C(F)(F)F)cc1C(F)(F)F
6.00 to 7.00
